Test: Quantitative High-Throughput drug screen in 47 multiple myeloma cell lines against the NCATS MIPE library collection: MM1S_ATCC cell viability assay (AID 1918980); note: nearly all actives have a fitted effect of over 45% in size
Settings: MM1S myeloma viability, CellTiter-Glo ATP luminescence, 48 h; series mostly up to 45.8 µM
Inconclusive results are not listed. Calls of active or inactive are those of the source. Calls come from the whole dose curve; as a rule, active = well fitted cell-killing curve with a large enough effect; inconclusive = small, poorly fitted or top-dose-only effect, or effect the other way; inactive = no such curve, though single readings can be large or run the other way.
Your response should consist of one outcome taken from active, inactive

Recorded test outcome, item COc1c(C)c2c(c(O)c1CC=C(C)CCC(=O)O)C(=O)OC2
active

GET /call?item= CC(C)C[C@@H](C(=O)N[C@H](C(=O)OC1CCCC1)c1ccccc1)[C@H](O)C(=O)NO returns the recorded outcome of this test.
active

How did this test come out for O=C(O)CCC=CCC[C@@H]1[C@H](N2CCCCC2)[C@@H](O)C[C@@H]1OCc1ccc(-c2ccccc2)cc1 ?
inactive

Hello, I am checking results. What call was entered for C[C@H]1COC2=C1C(=O)C(=O)c1c2ccc2c1CCCC2(C)C ?
active

Hi team, can someone confirm the assay call for O=C(C=Cc1ccc(O)cc1)c1ccc(O)cc1O ?
active

Look up the recorded call for COc1ccc(CCN(C)CCCOc2ccc(S(=O)(=O)c3[nH]c4ccccc4c3C(C)C)cc2)cc1OC in this test.
active

Would you mind telling me which call this test gave OC(c1cc(C(F)(F)F)nc2c(C(F)(F)F)cccc12)C1CCCCN1 (centres undefined) ?
active

I'd appreciate the recorded outcome for CCNC(=O)[C@H]1O[C@@H](n2cnc3c(N)nc(NCCc4ccc(CCC(=O)O)cc4)nc32)[C@H](O)[C@H]1O from this test.
active

How did this test come out for CCOC(=O)c1c(CSc2ccccc2)n(C)c2cc(Br)c(O)c(CN(C)C)c12 ?
active

Which result was noted for this molecule in the test: O=C1NC(=O)C(=Cc2ccc(-c3ccc(F)cc3O)o2)S1
active

Per the records of this test, what outcome belongs to COC(=O)Nc1ccc(-c2nc(N3CCOCC3)c3cnn(C4CCN(C(=O)OC)CC4)c3n2)cc1 ?
active

What call does the record list for CC[C@H]1OC(=O)[C@H](C)[C@@H](O[C@H]2C[C@@](C)(OC)[C@@H](O)[C@H](C)O2)[C@H](C)[C@@H](O[C@@H]2O[C@H](C)C[C@H](N(C)C)[C@H]2O)[C@](C)(O)C[C@H](C)C(=NOCOCCOC)[C@H](C)[C@@H](O)[C@]1(C)O ?
active

For this molecule, state the assay outcome: Clc1ccc(C2(c3ccc(-c4cn[nH]c4)cc3)CCNCC2)cc1
active

What is the recorded call for this molecule in the test? Nc1[nH]nc2nnc(-c3c(-c4ccccc4)nn4ccccc34)cc12
active

What outcome does the record of this test show for COc1ccc2ccc(=O)oc2c1CC=C(C)C ?
active

Lab log entry: Cc1cc(NC(=O)Nc2ccc(N(C)C)cc2)c2cc(F)cc(F)c2n1 — outcome as called in the assay?
active

Look up the recorded call for CCC[C@H](N[C@@H](C)C(=O)N1[C@@H]2CCCC[C@H]2C[C@H]1C(=O)O)C(=O)OCC in this test.
active

Identify the outcome logged in this assay for the molecule shown: CN(CC=CC#CC(C)(C)C)Cc1cccc2ccccc12
inactive

Answer briefly: the call reported for O=C(Nc1ccccc1)Nc1ccc(-c2ccc(C(=O)[C@H]3CCC[C@H]3C(=O)O)cc2)cc1 in this assay.
active

---

Assay: Quantitative High-Throughput drug screen in 47 multiple myeloma cell lines against the NCATS MIPE library collection: UTMC2_PLB cell viability assay (AID 1919868); note: nearly all actives have a fitted effect of over 55% in size
Conditions: CellTiter-Glo ATP luminescence, 48 h
Records with an inconclusive call do not appear. The source made the active and inactive calls. The call rests on the fitted dose curve; in most records, active means well fitted cell-killing curve with a large enough effect; inconclusive means small, poorly fitted or top-dose-only effect, or effect the other way; inactive means no such curve, though single readings can be large or run the other way.
Hi! Could you answer with just one of these? 1 (active), -1 (inactive)

What did the test return for C=CCc1cccc(C=NNC(=O)CN2CCN(Cc3ccccc3)CC2)c1O ?
1

Which outcome did this test record for the compound CO[C@H]1/C=C\O[C@@]2(C)Oc3c(C)c(O)c4c(O)c(c(C=NN5CCN(C6CCCC6)CC5)c(O)c4c3C2=O)NC(=O)C(C)=CC=C[C@H](C)[C@H](O)[C@@H](C)[C@@H](O)[C@@H](C)[C@H](OC(C)=O)[C@H]1C ?
1

Per the records of this test, what outcome belongs to OC[C@H]1O[C@@H](O[C@H]2[C@@H](O)[C@@](O)(CO)O[C@@H]2CO)[C@H](O)[C@@H](O)[C@@H]1O ?
-1

For CCC(=O)N1CCN(c2ccc(-n3c(=O)ccc4cnc5ccc(-c6cnc7ccccc7c6)cc5c43)cc2C(F)(F)F)CC1 , which call appears in the assay record?
1

Outcome logged for O=C(Nc1cccc(C(F)(F)F)c1)Nc1cc(S(=O)(=O)NC2CC2)ccc1-c1ccsc1 in this assay:
1

Query: recorded result category for OC[C@H]1O[C@@H](Oc2ccc(O)cc2)[C@H](O)[C@@H](O)[C@H]1O in this test
1

Hi, sorry to bother you, what did the test record for CC(C)(C)c1nc(-c2cccc(NS(=O)(=O)c3c(F)cccc3F)c2F)c(-c2ccnc(N)n2)s1 ?
-1

---

Test: qHTS for identification of novel therapeutic agents for treatment of microphthalmiaassociated transcription factor (MiT) renal cell carcinoma (RCC) (AID 1963991);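 note: curves scaled with 100% = DMSO viability and 0% = empty wells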
Conditions: TFE3-RCC viability, CellTiter-Glo, 48 h; measured here: UOK124 Z-AUC; stronger effect = lower value
Inconclusive results are not listed.
hey, just use 1 (yes) if measured z-score is less than -0.3, otherwise 0 (no)

Could you please tell me whether z-score recorded for CC1(C)CC(=O)c2c(C(F)(F)F)nn(-c3ccc(C(N)=O)c(NC4CCC(O)CC4)c3)c2C1 (configuration not stated) is less than -0.3?
1 (yes)

Lab note: confirm whether the reported z-score for this compound is below -0.3, equality not counting. compound: Cc1cc2nc3c(=O)[nH]c(=O)nc-3n(CC(O)C(O)C(O)CO)c2cc1C (configuration not stated)
0 (no)

Answer whether the compound CC[C@]1(O)C[C@H]2CN(CCC3=c4ccccc4=N[C]3[C@@](C(=O)OC)(c3cc4c(cc3OC)N(C)[C@H]3[C@@](O)(C(N)=O)[C@H](O)[C@]5(CC)C=CCN6CC[C@]43[C@@H]65)C2)C1 has z-score strictly less than -0.3
1 (yes)

Does this compound meet the criterion z-score < -0.3? CC[C@H]1OC(=O)[C@H](C)[C@@H](O[C@H]2C[C@@](C)(OC)[C@@H](O)[C@H](C)O2)[C@H](C)[C@@H](O[C@@H]2O[C@H](C)C[C@H](N(C)C)[C@H]2O)[C@](C)(O)C[C@H](C)C(=NOCOCCOC)[C@H](C)[C@@H](O)[C@]1(C)O
1 (yes)

is_below(z-score, -0.3) for CCCCC(F)(F)[C@@]1(O)CC[C@H]2[C@H](CC(=O)[C@@H]2CCCCCCC(=O)O)O1 ?
0 (no)

Decide: z-score of CN(CC=CC#CC(C)(C)C)Cc1cccc2ccccc12 strictly below -0.3?
0 (no)

Check if z-score falls below -0.3 for CCCCC[C@H](O)C=C[C@H]1[C@H](O)CC(=O)[C@H]1CCCCCCC(=O)O .
0 (no)

---

Test: Quantitative High-Throughput drug screen in 47 multiple myeloma cell lines against the NCATS MIPE library collection: KMS26_JCRB cell viability assay (AID 1918975); note: nearly all actives have a fitted effect of over 45% in size
Conditions: KMS26 myeloma cells viability, CellTiter-Glo ATP, 48 h; series mostly up to 45.8 µM
Records with an inconclusive call do not appear. Active and inactive are the calls of the source. Calls come from the whole dose curve; as a rule, active = well fitted cell-killing curve with a large enough effect; inconclusive = small, poorly fitted or top-dose-only effect, or effect the other way; inactive = no such curve, though single readings can be large or run the other way.
// allowed return values: yes = active, no = inactive

Hi team, can someone confirm the assay call for C[C@@]1(c2cc(-c3cncnc3)c(F)cc2F)CCSC(N)=N1 ?
no

How was CCCCCOC(=O)Nc1nc(=O)n([C@@H]2O[C@H](C)[C@@H](O)C2O)cc1F (stereo partly drawn) classified in this test?
no

Dear colleague, could you share the recorded outcome for O=C(Nc1ccc(OC(F)(F)F)cc1)c1sccc1NCc1ccnc2ccccc12 when you have a moment?
yes

Any idea what this test logged for COc1cccc(OC)c1-c1cc(C(=O)NC2(C(=O)O)C3CC4CC(C3)CC2C4)nn1-c1ccnc2cc(Cl)ccc12 (stereo not drawn) ?
no

Per the assay record, what outcome was assigned to Cc1ccc(C(=O)N(CCCN)[C@@H](c2nc3cc(Cl)ccc3c(=O)n2Cc2ccccc2)C(C)C)cc1 ?
yes

Just curious, what result did CC(C)[C@H](O)C(=O)N[C@@H](C)C(=O)N[C@@H]1C(=O)N(C)CCc2ccccc21 get here?
no

Hi, sorry to bother you, what did the test record for CCCCC[C@H](O)C=C[C@H]1[C@H](O)CC(=O)[C@H]1CCCCCCC(=O)O ?
no

Called result for COC(=O)[C@H](c1ccccc1Cl)N1CCc2sccc2C1
no

Give the logged outcome of this assay for the following molecule: NCC1CCC(C(=O)O)CC1 (stereo not drawn)
no

What is the recorded call for this molecule in the test? CC(=O)N1CCN(c2ccc(OCc3nn(C)c(C)c3-c3cccc4c(CCCOc5cc(C)c(Cl)c(C)c5)c(C(=O)O)n(Cc5cccnc5)c34)cc2)CC1
yes

GET /call?item= C[C@@H](O)[C@H]1C(=O)N2C(C(=O)OCOC(=O)C(C)(C)C)=C(SC3CN(C4=NCCS4)C3)[C@H](C)[C@H]12 returns the recorded outcome of this test.
no

Could you kindly confirm the outcome this assay logged for OC(c1cc(C(F)(F)F)nc2c(C(F)(F)F)cccc12)C1CCCCN1 (stereo not drawn) ?
yes

Recorded call for O=C(CC12CC3CC(CC(C3)C1)C2)Nc1cccc2nc(NCCNCCO)ccc12 ?
yes

Check the results log: what was the call for COc1cc2nc(-c3cc(F)ccc3O)nc(N[C@@H]3CNC[C@@H]3C(C)(C)O)c2cc1OC ?
yes

Record lookup: outcome of this test for CCCC1OC2C[C@@H]3[C@H]4CCC5=CC(=O)C=C[C@]5(C)[C@H]4C(O)C[C@]3(C)[C@]2(C(=O)CO)O1 (stereo partly drawn) ?
no

Given Cc1nn(Cc2ccccc2Cl)c(C)c1CN(C)CC(O)COc1ccc(Cl)cc1 (stereo not drawn) , state the outcome it received in this test.
yes

So what was the verdict on CCCCCCCCCCCCCCCC(=O)O[C@H]1[C@@H](O)[C@@H](O)[C@@H]([C@H](NC(=O)[C@@H]2C[C@@H](CCC)CN2C)[C@H](C)Cl)O[C@@H]1SC in this test?
no

# outcome recorded in this test, key = CCOC(=O)c1c(CSc2ccccc2)n(C)c2cc(Br)c(O)c(CN(C)C)c12
yes

Fill in: this test's call for CC1(C)C(N(O)C(=O)Nc2ccc(Cl)cc2)N(c2ccc(Cl)cc2)C(=O)N1CC(=O)NN=CC=Cc1ccc([N+](=O)[O-])o1 (stereo not drawn) is ___
yes

Can you look up the reported call for CCCCC(C)(C)[C@H](O)C=C[C@H]1[C@H](O)CC(=O)[C@H]1CC=CCCCC(=O)O for me?
yes

Just curious, what result did CCCCc1ccc(NS(=O)(=O)c2ccc(C)c(C(=O)N3CCN(c4cccc(C)c4C)CC3)c2)cc1 get here?
yes

Name the outcome recorded for O=C1C(c2c(O)[nH]c3ccccc23)=Nc2ccccc21 in the assay.
yes

Dear colleague, could you share the recorded outcome for NC1(C(=O)N[C@@H](CCO)c2ccc(Cl)cc2)CCN(c2ncnc3[nH]ccc23)CC1 when you have a moment?
yes

Lab log entry: O=C(Nc1cccc(Cl)c1)Nc1ncc(CCNc2ncnc3ccsc23)s1 — outcome as called in the assay?
yes

Outcome? OC[C@H]1O[C@@H](Oc2ccc(O)cc2)[C@H](O)[C@@H](O)[C@H]1O
no

Hi team, can someone confirm the assay call for C[C@@]1(C(=O)Nc2ccc(F)nc2)CCCN1c1nc(Nc2cc(C3CC3)[nH]n2)c2cccn2n1 ?
yes

Test call, this molecule: CN[C@@H](C)[C@H]1[C@H](O)C[C@@]2(C)[C@@H]3CC[C@H]4C(C)(C)[C@@H](NC)CC[C@@]45C[C@@]35CC[C@]12C
no

State the result this test recorded for CNC(=O)c1ccc2c(C(=Nc3cccc(CN(C)C)c3)c3ccccc3)c(O)[nH]c2c1 .
yes

Hi, do you know how O=C(O)c1ccc(O)c2ncc(N3CCOCC3)cc12 came out in this test?
no

Recorded test call requested for COc1ccc(-c2cc3nccn3c(Nc3ncccc3C(N)=O)n2)cc1OC
yes

Fill in: this test's call for Cc1[nH]c(C=C2C(=O)Nc3ccc(S(=O)(=O)N(C)c4cccc(Cl)c4)cc32)c(C)c1C(=O)N1CCN(C)CC1 is ___
yes

Please share the test call associated with COc1cc2c(cc1Cc1cccc(Cl)c1F)c(=O)c(C(=O)O)cn2[C@H](CO)C(C)C .
yes

Status in this test for CO[C@@H]1C(N(C)C(=O)c2ccccc2)C[C@H]2O[C@]1(C)n1c3ccccc3c3c4c(c5c6ccccc6n2c5c31)C(=O)NC4=O (stereo partly drawn) ?
yes
